tested on: HCT-116 colorectal cancer cells; test: XTT cell viability assay, HCT-116; type: cell-based, human; conditions: Homo sapiens, HCT-116, 24 h, read-out: GI50 HCT-116
MEASURED_ATTRIBUTE: GI50 (nM)

{"COMPOUND": "CCCCCC1=C/C(=C/c2[nH]c(-c3ccc[nH]3)cc2OC)N=C1C [Compound 3, prodigiosin, reference compound]", "RESULT": 240}

[1] O=c1[nH]cc(F)c(=O)[nH]1 [Compound 10, 5-fluorouracil, reference compound]
[2] COC1=CC(c2cc3ccccc3[nH]2)=N/C1=C\c1[nH]c(C)cc1C [Compound 2, obatoclax, reference compound]
[3] COc1cc2c3c4c1Oc1cc5c(cc1O4)[C@@H](Cc1ccc(O)c(c1)Oc1ccc(cc1)C[C@@H]3N(C)CC2)N(C)CC5
Your job: order these 3 records by GI50, ascending. Please respond with the labels ordered as the question requires.
2, 1, 3
(2: 100 nM, 1: 720 nM, 3: 3500 nM)

----------
Recorded GI50 by entry
tested on: HCT-116 colorectal cancer cells; test: XTT cell viability assay, HCT-116; assay type: cell-based, human; details: read-out: GI50 HCT-116; XTT, 24 hours post-treatment
Respond numerically; units are nM and should not be typed.

{"TEST_SMILES": "CCCC[C@H]1CCCCCCc2[nH]c(/C=C3\\N=CC(c4ccc[nH]4)=C3OC)cc21", "TESTED_TARGET": "HCT-116 colorectal cancer cells", "GI50, nM": 35}

Then this molecule:
Param item = `CC[C@@]1(O)C[C@H](O[C@H]2C[C@H](N(C)C)[C@H](O)[C@H](C)O2)c2c(cc3c(c2O)C(=O)c2c(O)cccc2C3=O)[C@H]1C(=O)OC` ; retrieve measured GI50.
570

----------
test system: HCT-116 colorectal cancer cells; experiment: XTT cell viability assay, HCT-116; format: cell-based, human; conditions: read-out: GI50 HCT-116; XTT, 24 hours post-treatment
MEASURED_ATTRIBUTE: GI50

Look up GI50 for this compound: `C[C@@H](N)C(=O)N[C@H]1CO[C@H](O)[C@H](N)[C@H]1O`
≥ 10 µM

Please look up its GI50: COc1cc2c3c(cc4ccccc4c3c1OC)N(C)CC2 [Compound 9, dehydronuciferin]
≥ 10 µM

Please report the recorded GI50 for CN1CCCC2C(c3ccccc3)C(C3=NCCCC3)C(c3ccccc3)CC21 (stereo not drawn) .
≥ 10 µM

Reference source for all entries: paper PMC6697619
